Can you tell me PBM E-score for the items I'm about to list?
# target or test system: Cad1 (UniProt P24813)
# Sequence: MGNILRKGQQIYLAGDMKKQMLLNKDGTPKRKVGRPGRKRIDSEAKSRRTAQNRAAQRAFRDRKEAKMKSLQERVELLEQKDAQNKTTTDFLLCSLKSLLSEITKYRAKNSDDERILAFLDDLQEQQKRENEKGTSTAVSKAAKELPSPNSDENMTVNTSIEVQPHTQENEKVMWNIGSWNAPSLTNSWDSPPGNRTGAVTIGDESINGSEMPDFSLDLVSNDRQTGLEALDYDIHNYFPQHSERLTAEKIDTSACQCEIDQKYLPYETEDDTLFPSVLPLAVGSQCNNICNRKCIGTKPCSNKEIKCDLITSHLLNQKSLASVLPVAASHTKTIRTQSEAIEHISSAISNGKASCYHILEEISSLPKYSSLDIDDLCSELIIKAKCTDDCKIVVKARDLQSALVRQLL
# protocol text: PBM E-score (8-mer binding enrichment) (E-score (-0.5 to 0.5)); higher = stronger / more preferred TF binding
# measurement setup: protein concentration: 100 nM; construct: GST-full length
Whole data set: some 33,000 sequences, median “E-score (-0.5 to 0.5)” near -0.0014, cut for the highest 2% near 0.25. The entries come from a sample that favours the highest values as a whole.
Numbers only.

Worked examples follow.
CCAGAAGC: -0.248
AGATCCCG: 0.281
ATCCGCCA: 0.0883

Would you be so kind as to report PBM E-score for each listed record?
1. AGTCGCGA
2. CAGAGAGG
3. CCCAAGAA
4. GGGCCTCA
5. CCATAGTC
6. CCAGGACA
7. GGTCGCGA
8. AGTCGCGG

[0.285, -0.329, 0.0477, -0.0631, -0.0534, 0.0769, 0.273, -0.179]

* * *

# target or test system: Cad1 (UniProt P24813)
# Sequence: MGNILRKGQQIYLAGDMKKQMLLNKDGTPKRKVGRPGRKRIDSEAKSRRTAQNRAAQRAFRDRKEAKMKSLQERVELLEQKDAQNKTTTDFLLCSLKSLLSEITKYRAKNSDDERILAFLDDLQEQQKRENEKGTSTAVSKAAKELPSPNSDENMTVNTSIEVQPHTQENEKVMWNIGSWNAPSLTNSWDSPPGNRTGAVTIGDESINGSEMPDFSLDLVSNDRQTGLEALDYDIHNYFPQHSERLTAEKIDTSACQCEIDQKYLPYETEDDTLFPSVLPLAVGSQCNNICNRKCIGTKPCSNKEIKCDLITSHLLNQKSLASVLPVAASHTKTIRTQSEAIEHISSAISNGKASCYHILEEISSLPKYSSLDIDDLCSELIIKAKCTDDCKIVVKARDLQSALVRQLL
# protocol text: PBM E-score (8-mer binding enrichment) (E-score (-0.5 to 0.5)); higher = stronger / more preferred TF binding
# measurement setup: protein concentration: 100 nM; construct: GST-full length
Whole data set: some 33,000 sequences, median “E-score (-0.5 to 0.5)” near -0.0014, cut for the highest 2% near 0.25. This excerpt belongs to a sample that is enriched for the highest values.
measurement label: PBM E-score
Answers are plain numbers.

Worked examples follow.
CTAACGGC: 0.00942
AATATTCT: 0.126
ACATTGGT: 0.0584

Would you be so kind as to report PBM E-score for each listed record?
1. ATATTATC
2. AATATCCC
3. GATTTCTA

1. 0.096
2. -0.00553
3. 0.123

Would you be so kind as to report PBM E-score for each listed record?
1. GCTTACGA
2. GCTTACAA
3. ACTTACAC
4. AATATCCG
5. ACTTACAA
6. CATATTCG
7. CCCACGGA

1: 0.258; 2: 0.308; 3: -0.0153; 4: 0.265; 5: 0.278; 6: 0.129; 7: -0.117
